# targetSystem: T1, UNK ZnF1-3 (human, UniProt Q9C0B0 31-174)
# T1 sequence: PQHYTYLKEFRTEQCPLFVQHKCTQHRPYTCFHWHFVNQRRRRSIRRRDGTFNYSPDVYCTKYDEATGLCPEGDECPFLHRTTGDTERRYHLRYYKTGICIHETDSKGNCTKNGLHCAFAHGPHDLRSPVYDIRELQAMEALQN
# test: nsRBNS (natural sequence RNA bind-n-seq); RBNS binding buffer (assumed for nsRBNS): 25 mM Tris pH 7.5, 150 mM KCl, 3 mM MgCl2, 0.01% Triton X-100, 500 ug/ml BSA, 20 U/ml SUPERase-In, 4 C; UNK is unkempt and MSI1 is Musashi-1; names of the RNAs are library labels; protein concentration not given here; high values mean tight binding
Over roughly 24,000 sequences, “enrichment r” has its median near 0.99; the highest 2% begin near 3.7. The entries come from a sample that favours the highest values as a whole.
Would you kindly list binding signal for each of these binders?
Answers are plain numbers, in enrichment R.

{"binder": "chrX:71549762:71549763:+_ENSMUSG00000019087_ENSMUST00000019231|mus_mus|mus_mus_mus_hu_False|28_88 (ssRNA) RNA: GGGAGUUCUACAGUCCGACGAUCAAACCCGUGUACUUCUUAUUGUUACAUCACCCCCACCAGAAAACGAUAACGACAGCCAAGCAGGACAGACAGUUAAGUAGUACUUCCACACCUCCAAACUCAGGGAGCCCUAUAACCUUACAACAGAGGAUUGAGCAUCA", "binding signal (enrichment R)": 1.85}

For each listed entry, give its binding signal.
1. 32740819_32743422_11525_CDS_ENSG00000115760_ENST00000421745|human|control|control (ssRNA) RNA: GGGAGUUCUACAGUCCGACGAUCCAGCAUCAACUGUAAAAAUAAUCUUCGUAUAAACCCUGAAAUGUUCCCAGAUGUUGGAAGGUUCCCUCUUUGAGGAGAUGUCUGAAAUAGUUCACAAAGAACCUGUGCCAUCAGCUUUUGCAACAGAGGAUUGAGCAUCA
2. chr2:140009677:140009678:+_ENSMUSG00000027384_ENSMUST00000044825|mus_mus|FALSE|FALSE (ssRNA) RNA: GGGAGUUCUACAGUCCGACGAUCGCUGCUAACCACCAGGUCAAACGUGUUUUCUUGGAAGGGAAGGAAUUCUUCAUCAGCUAAAAUAUUCACAGUAGGAAUAUCUGUUUCUAAAGAAUUUUUCAAAGCAUGCUCUGCAAUGUCCAACAGAGGAUUGAGCAUCA

[1.97, 1.19]
